Test system: 885724-159-R-J1-PDC complex spheroid viability
Assay: Anticancer human tumor 885724-159-R-J1-PDC patient-derived pancreatic adenocarcinoma cell line growth inhibition [GQUAD]
Settings: second compound 0.0316 µM; first compound 0.0316 µM; stronger effect = lower value
Known viability, T/C of a selection of molecules
The reply should contain only the number, in %.

Consider the following illustrative entries.
{"Molecule": "O=C(c1cc(Cc2n[nH]c(=O)c3ccccc23)ccc1F)N1CCN(C(=O)C2CC2)CC1 + Cc1cnc(CNC(=O)c2c(=O)c3ccc(N4CCCN(C)CC4)nc3n3c2sc2ccccc23)cn1", "Assay Target": "885724-159-R-J1-PDC complex spheroid viability", "Metric Name": "viability, T/C", "Measured Result": 97.6}
{"Molecule": "Cn1ncnc1[C@H]1c2n[nH]c(=O)c3cc(F)cc(c23)N[C@@H]1c1ccc(F)cc1 + Cc1cnc(CNC(=O)c2c(=O)c3ccc(N4CCCN(C)CC4)nc3n3c2sc2ccccc23)cn1", "Assay Target": "885724-159-R-J1-PDC complex spheroid viability", "Metric Name": "viability, T/C", "Measured Result": 108}
{"Molecule": "COc1ncnc(C2CC2)c1-c1ncc2cnn(Cc3ccc(-c4nc(C(F)(F)F)cn4C(C)C)cc3)c2n1 + Cc1cnc(CNC(=O)c2c(=O)c3ccc(N4CCCN(C)CC4)nc3n3c2sc2ccccc23)cn1", "Assay Target": "885724-159-R-J1-PDC complex spheroid viability", "Metric Name": "viability, T/C", "Measured Result": 113}
{"Molecule": "O=C(NO)c1cnc(N2CCN(S(=O)(=O)c3ccc4ccccc4c3)CC2)nc1 + Cc1cnc(CNC(=O)c2c(=O)c3ccc(N4CCCN(C)CC4)nc3n3c2sc2ccccc23)cn1", "Assay Target": "885724-159-R-J1-PDC complex spheroid viability", "Metric Name": "viability, T/C", "Measured Result": 77.4}

// next entry
Lab note: measured viability, T/C of C=CCn1c(=O)c2cnc(Nc3ccc(N4CCN(C)CC4)cc3)nc2n1-c1cccc(C(C)(C)O)n1 + Cc1cnc(CNC(=O)c2c(=O)c3ccc(N4CCCN(C)CC4)nc3n3c2sc2ccccc23)cn1 was 105

###

Readings of viability, T/C for the listed compounds
Test system: 885724-159-R-J1-PDC complex spheroid viability
Experiment: Anticancer human tumor 885724-159-R-J1-PDC cell line growth inhibition [GQUAD];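 further: spheroids exposed to agents for seven days before readout; percent of vehicle control viability where 100% = DMSO wells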
Details: second compound 0.1 µM; first compound 0.316 µM; stronger effect = lower value
Number in %, nothing else.

viability, T/C in this record for C=CCn1c(=O)c2cnc(Nc3ccc(N4CCN(C)CC4)cc3)nc2n1-c1cccc(C(C)(C)O)n1 + CN(C)c1ccc(Nc2c3ccc(NC(=O)CCN4CCCC4)cc3nc3cc(NC(=O)CCN4CCCC4)ccc23)cc1 : 79.3

The compound Cc1[nH]c2ccccc2c1CCNCc1ccc(/C=C/C(=O)NO)cc1 + Cc1[nH]c2ccc(F)cc2c1-c1nc2c3cccnc3c3ncccc3c2[nH]1 showed viability, T/C equal to 48.5

The recorded viability, T/C for entry O=C(NO)c1cnc(N2CCN(S(=O)(=O)c3ccc4ccccc4c3)CC2)nc1 + Cc1[nH]c2ccc(F)cc2c1-c1nc2c3cccnc3c3ncccc3c2[nH]1 equals 82

###

Test system: 885724-159-R-J1-PDC complex spheroid viability
Test: Anticancer human tumor 885724-159-R-J1-PDC cell line growth inhibition [GQUAD];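 further: spheroids exposed to agents for seven days before readout; percent of vehicle control viability where 100% = DMSO wells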
Settings: second compound 10 µM; first compound 3.16 µM; stronger effect = lower value
Metric Name: viability, T/C

{"Molecule": "CC(C)n1c(=O)n(C)c2cnc3cc(F)c(-c4ccc(OCCCN5CCCCC5)nc4)cc3c21 + Cc1cnc(CNC(=O)c2c(=O)c3ccc(N4CCCN(C)CC4)nc3n3c2sc2ccccc23)cn1", "viability, T/C": "61.7%"}
{"Molecule": "COc1ccc([C@@H](O)c2cc(-c3ncnc4cc(N5CCOCC5)ccc34)c(F)cc2Cl)nn1 + CN(C)c1ccc(Nc2c3ccc(NC(=O)CCN4CCCC4)cc3nc3cc(NC(=O)CCN4CCCC4)ccc23)cc1", "viability, T/C": "49%"}

In the following, a different molecule is considered.
# viability, T/C (molecule: O=C(c1cc(Cc2n[nH]c(=O)c3ccccc23)ccc1F)N1CCN(C(=O)C2CC2)CC1 + Cc1[nH]c2ccc(F)cc2c1-c1nc2c3cccnc3c3ncccc3c2[nH]1 ) is 70.6%

###

System: 885724-159-R-J1-PDC complex spheroid viability
Experiment: Anticancer human tumor 885724-159-R-J1-PDC cell line growth inhibition [GQUAD];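 further: spheroids exposed to agents for seven days before readout; percent of vehicle control viability where 100% = DMSO wells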
Settings: second compound 0.1 µM; first compound 0.0316 µM; stronger effect = lower value
# viability, T/C per entry
Lab book: enter the figure in %, no units written.

Please review the entries below; each comes with its answer.
{"Compound": "CCCS(=O)(=O)Nc1ccc(F)c(C(=O)c2c[nH]c3ncc(-c4ccc(Cl)cc4)cc23)c1F + Cc1[nH]c2ccc(F)cc2c1-c1nc2c3cccnc3c3ncccc3c2[nH]1", "Assay Target": "885724-159-R-J1-PDC complex spheroid viability", "Measured Result": 110}
{"Compound": "C#Cc1c(F)ccc2cc(O)cc(-c3ncc4c(N5CC6CCC(C5)N6)nc(OCC56CCCN5CC(F)C6)nc4c3F)c12 (stereo not given) + Cc1[nH]c2ccc(F)cc2c1-c1nc2c3cccnc3c3ncccc3c2[nH]1", "Assay Target": "885724-159-R-J1-PDC complex spheroid viability", "Measured Result": 101}
{"Compound": "COc1cc(C2c3cc4c(cc3C(OC3OC5COC(C)OC5C(O)C3O)C3COC(=O)C23)OCO4)cc(OC)c1O (stereo not given) + Cc1cnc(CNC(=O)c2c(=O)c3ccc(N4CCCN(C)CC4)nc3n3c2sc2ccccc23)cn1", "Assay Target": "885724-159-R-J1-PDC complex spheroid viability", "Measured Result": 116}

Entry COc1ccc([C@@H](O)c2cc(-c3ncnc4cc(N5CCOCC5)ccc34)c(F)cc2Cl)nn1 + Cc1cnc(CNC(=O)c2c(=O)c3ccc(N4CCCN(C)CC4)nc3n3c2sc2ccccc23)cn1 : viability, T/C on 885724-159-R-J1-PDC complex spheroid viability = 109

Lab entry: 885724-159-R-J1-PDC complex spheroid viability assay, compound Cc1[nH]c2ccccc2c1CCNCc1ccc(/C=C/C(=O)NO)cc1 + Cc1cnc(CNC(=O)c2c(=O)c3ccc(N4CCCN(C)CC4)nc3n3c2sc2ccccc23)cn1 , viability, T/C = 98.8

Entry CC(=O)O[C@H]1C(=O)[C@@]2(C)[C@H]([C@H](OC(=O)c3ccccc3)[C@]3(O)C[C@H](OC(=O)[C@H](O)[C@@H](NC(=O)c4ccccc4)c4ccccc4)C(C)=C1C3(C)C)[C@]1(OC(C)=O)CO[C@@H]1C[C@@H]2O + Cc1[nH]c2ccc(F)cc2c1-c1nc2c3cccnc3c3ncccc3c2[nH]1 under 885724-159-R-J1-PDC complex spheroid viability had viability, T/C of 112

###

Tested on: 885724-159-R-J1-PDC complex spheroid viability
Test: Anticancer human tumor 885724-159-R-J1-PDC cell line growth inhibition [GQUAD];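 further: spheroids exposed to agents for seven days before readout; percent of vehicle control viability where 100% = DMSO wells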
Settings: second compound 0.0316 µM; first compound 3.16 µM; stronger effect = lower value
Metric Name: viability, T/C (%)
I only need the number, in %, no unit after it.

Use these answered entries as a reference point.
{"Molecule": "CCCS(=O)(=O)Nc1ccc(F)c(C(=O)c2c[nH]c3ncc(-c4ccc(Cl)cc4)cc23)c1F + CN(C)c1ccc(Nc2c3ccc(NC(=O)CCN4CCCC4)cc3nc3cc(NC(=O)CCN4CCCC4)ccc23)cc1", "Assay Target": "885724-159-R-J1-PDC complex spheroid viability", "viability, T/C [%]": 139}
{"Molecule": "O=C(c1cc(Cc2n[nH]c(=O)c3ccccc23)ccc1F)N1CCN(C(=O)C2CC2)CC1 + Cc1cnc(CNC(=O)c2c(=O)c3ccc(N4CCCN(C)CC4)nc3n3c2sc2ccccc23)cn1", "Assay Target": "885724-159-R-J1-PDC complex spheroid viability", "viability, T/C [%]": 87.3}
{"Molecule": "C#Cc1c(F)ccc2cc(O)cc(-c3ncc4c(N5CC6CCC(C5)N6)nc(OCC56CCCN5CC(F)C6)nc4c3F)c12 (stereo not given) + Cc1[nH]c2ccc(F)cc2c1-c1nc2c3cccnc3c3ncccc3c2[nH]1", "Assay Target": "885724-159-R-J1-PDC complex spheroid viability", "viability, T/C [%]": 57.5}
{"Molecule": "C=CC(=O)N1CCN(c2nc(=O)n(-c3c(C)ccnc3C(C)C)c3nc(-c4c(O)cccc4F)c(F)cc23)C(C)C1 (stereo not given) + Cc1cnc(CNC(=O)c2c(=O)c3ccc(N4CCCN(C)CC4)nc3n3c2sc2ccccc23)cn1", "Assay Target": "885724-159-R-J1-PDC complex spheroid viability", "viability, T/C [%]": 100}

Could you now consider this next molecule?
Recorded viability, T/C (molecule COc1ncnc(C2CC2)c1-c1ncc2cnn(Cc3ccc(-c4nc(C(F)(F)F)cn4C(C)C)cc3)c2n1 + CN(C)c1ccc(Nc2c3ccc(NC(=O)CCN4CCCC4)cc3nc3cc(NC(=O)CCN4CCCC4)ccc23)cc1 ): 81.4
